target: UniProt:Q15858; experiment: Electrophysiology assay (whole cell patch clamp), human Nav1.7 (hSCN9A) expressing CHO cells; conditions: dissociation constant for the inactivated state (Kinact); read-out: activities (Ki) against NaV1.7
Readout label: Ki (µM)

INSERT INTO assay_data (compound, readout_label, unit_annotation, reported_measurement) VALUES
  ('Cc1cc(C(C)N2Cc3c(ccnc3NC(=O)C(C)C)C2=O)cnc1OCC(F)(F)F (single isomer, unassigned)', 'Ki', 'µM', 0.091);

----------
target: human Nav1.5 channels (Homo sapiens, UniProt Q14524); assay: FRET assay, HEK293 cells expressing human NaV1.5 channels; conditions: read-out: activities against Nav1.5
Sequence (Q14524 whole entry): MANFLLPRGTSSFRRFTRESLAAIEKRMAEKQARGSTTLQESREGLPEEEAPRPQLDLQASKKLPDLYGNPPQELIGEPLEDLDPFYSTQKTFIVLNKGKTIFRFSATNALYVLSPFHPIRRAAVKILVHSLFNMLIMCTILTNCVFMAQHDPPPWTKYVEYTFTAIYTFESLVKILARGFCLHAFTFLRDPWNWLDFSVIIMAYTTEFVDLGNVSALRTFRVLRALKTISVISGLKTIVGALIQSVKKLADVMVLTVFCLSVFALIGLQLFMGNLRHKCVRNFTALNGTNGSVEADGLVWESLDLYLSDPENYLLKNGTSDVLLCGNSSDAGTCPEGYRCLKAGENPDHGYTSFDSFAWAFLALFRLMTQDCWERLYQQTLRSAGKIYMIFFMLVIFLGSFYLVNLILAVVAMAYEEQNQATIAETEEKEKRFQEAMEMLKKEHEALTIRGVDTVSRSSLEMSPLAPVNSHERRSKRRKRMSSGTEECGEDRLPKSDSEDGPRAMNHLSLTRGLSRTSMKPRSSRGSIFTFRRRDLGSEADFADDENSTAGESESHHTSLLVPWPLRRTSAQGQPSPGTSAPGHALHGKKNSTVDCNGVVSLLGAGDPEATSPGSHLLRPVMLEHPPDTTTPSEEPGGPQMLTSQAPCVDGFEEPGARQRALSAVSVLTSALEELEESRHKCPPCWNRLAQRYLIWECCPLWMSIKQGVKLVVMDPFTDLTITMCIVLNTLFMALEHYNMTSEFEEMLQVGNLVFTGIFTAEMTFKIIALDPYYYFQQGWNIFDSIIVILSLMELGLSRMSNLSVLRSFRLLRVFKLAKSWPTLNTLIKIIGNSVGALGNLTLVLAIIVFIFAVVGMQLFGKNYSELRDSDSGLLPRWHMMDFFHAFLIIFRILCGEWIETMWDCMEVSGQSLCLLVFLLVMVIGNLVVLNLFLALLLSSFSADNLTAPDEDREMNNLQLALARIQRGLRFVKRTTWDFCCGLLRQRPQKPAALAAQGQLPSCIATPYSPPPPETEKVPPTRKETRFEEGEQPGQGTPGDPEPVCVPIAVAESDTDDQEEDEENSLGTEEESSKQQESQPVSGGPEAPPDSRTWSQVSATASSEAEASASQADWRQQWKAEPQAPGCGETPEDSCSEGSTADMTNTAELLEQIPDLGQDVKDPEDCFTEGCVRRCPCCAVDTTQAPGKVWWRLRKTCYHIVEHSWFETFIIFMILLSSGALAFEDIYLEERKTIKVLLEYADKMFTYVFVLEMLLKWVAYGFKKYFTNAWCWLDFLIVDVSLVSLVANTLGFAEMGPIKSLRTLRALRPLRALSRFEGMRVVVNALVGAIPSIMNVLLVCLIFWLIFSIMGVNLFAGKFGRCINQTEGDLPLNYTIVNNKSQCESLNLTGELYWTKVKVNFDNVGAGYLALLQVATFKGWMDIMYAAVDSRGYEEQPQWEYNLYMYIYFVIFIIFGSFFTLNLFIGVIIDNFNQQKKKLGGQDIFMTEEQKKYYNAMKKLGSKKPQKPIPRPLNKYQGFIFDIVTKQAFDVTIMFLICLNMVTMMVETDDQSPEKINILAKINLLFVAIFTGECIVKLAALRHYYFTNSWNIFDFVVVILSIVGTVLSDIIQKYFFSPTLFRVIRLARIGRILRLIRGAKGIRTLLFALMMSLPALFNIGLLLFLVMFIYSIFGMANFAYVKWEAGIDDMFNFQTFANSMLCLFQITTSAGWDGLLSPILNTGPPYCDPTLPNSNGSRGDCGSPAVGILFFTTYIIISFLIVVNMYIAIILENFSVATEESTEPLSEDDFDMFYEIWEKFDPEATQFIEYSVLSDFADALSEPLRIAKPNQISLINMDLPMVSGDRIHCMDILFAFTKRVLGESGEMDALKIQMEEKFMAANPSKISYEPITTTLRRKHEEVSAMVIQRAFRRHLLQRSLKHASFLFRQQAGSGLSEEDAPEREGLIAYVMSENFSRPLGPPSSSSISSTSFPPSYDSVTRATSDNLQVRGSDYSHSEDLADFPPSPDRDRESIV
Readout label: IC50

INSERT INTO assay_data (molecule, reported_measurement) VALUES
  ('CC(=O)Nc1nccc2c1CN(C(C)c1cnc(OCC(F)(F)F)c(C)c1)C2=O (single isomer, unassigned)', '> 30 µM');

----------
target: human NaV1.3 channels (Homo sapiens, UniProt Q9NY46); test: FRET assay, HEK293 cells expressing human NaV1.3 channels; conditions: read-out: activities against Nav1.3
Sequence (Q9NY46 whole entry): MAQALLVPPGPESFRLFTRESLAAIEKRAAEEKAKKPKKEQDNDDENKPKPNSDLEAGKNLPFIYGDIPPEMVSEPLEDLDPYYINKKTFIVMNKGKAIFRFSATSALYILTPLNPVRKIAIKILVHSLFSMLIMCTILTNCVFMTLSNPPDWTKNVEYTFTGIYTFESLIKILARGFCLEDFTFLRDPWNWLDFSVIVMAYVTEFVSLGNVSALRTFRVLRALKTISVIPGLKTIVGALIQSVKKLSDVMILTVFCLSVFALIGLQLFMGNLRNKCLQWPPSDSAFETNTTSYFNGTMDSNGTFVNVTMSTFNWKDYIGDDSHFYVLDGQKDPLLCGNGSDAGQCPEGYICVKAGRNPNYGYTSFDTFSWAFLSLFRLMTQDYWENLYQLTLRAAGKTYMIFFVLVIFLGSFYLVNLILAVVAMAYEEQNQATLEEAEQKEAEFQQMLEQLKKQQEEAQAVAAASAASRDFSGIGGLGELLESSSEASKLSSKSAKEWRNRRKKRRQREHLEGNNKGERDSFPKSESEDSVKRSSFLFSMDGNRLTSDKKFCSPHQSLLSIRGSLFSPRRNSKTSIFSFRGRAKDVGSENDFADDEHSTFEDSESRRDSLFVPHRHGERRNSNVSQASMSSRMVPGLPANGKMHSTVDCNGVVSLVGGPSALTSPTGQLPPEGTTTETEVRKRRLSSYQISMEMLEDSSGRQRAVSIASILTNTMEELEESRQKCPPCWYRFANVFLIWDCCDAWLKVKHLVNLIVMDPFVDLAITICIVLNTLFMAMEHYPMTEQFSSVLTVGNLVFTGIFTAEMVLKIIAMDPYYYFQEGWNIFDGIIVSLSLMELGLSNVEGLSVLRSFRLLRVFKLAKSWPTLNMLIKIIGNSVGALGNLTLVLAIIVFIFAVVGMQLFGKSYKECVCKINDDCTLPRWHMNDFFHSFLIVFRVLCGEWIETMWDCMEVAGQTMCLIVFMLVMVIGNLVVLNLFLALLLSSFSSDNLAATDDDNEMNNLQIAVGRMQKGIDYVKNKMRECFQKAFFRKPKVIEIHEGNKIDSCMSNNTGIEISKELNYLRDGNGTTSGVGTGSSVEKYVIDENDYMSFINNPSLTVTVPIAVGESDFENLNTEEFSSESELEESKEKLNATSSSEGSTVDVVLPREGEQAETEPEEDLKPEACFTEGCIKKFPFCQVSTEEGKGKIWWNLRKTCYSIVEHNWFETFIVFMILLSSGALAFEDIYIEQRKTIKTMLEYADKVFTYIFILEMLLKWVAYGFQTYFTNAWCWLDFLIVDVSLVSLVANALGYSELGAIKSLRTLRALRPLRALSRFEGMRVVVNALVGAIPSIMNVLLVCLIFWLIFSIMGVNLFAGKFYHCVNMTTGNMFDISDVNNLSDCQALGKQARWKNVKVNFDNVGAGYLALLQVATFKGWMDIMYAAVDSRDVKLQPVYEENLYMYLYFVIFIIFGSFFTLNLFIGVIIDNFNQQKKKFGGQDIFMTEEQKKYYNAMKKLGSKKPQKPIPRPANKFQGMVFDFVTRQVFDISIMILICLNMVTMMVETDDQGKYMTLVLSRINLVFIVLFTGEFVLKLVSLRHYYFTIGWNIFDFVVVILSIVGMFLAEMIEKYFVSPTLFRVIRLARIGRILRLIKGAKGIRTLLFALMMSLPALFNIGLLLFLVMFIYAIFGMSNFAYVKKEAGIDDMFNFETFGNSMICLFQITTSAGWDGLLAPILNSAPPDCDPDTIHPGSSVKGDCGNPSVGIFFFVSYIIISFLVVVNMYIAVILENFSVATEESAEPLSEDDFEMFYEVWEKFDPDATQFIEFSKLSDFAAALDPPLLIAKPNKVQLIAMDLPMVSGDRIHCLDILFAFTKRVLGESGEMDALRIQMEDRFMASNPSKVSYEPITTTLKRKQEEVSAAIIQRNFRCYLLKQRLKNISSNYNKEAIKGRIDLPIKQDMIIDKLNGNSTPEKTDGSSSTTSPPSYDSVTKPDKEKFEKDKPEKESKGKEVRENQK
pIC50: −log10 of the molar value.
Readout label: pIC50

INSERT INTO assay_data (compound, reported_measurement) VALUES
  ('CC(=O)Nc1nccc2c1CN(C(C)c1cnc(OCC(F)(F)F)c(C)c1)C2=O (single isomer, unassigned)', 6.36);

----------
molecular target: human Nav1.7 channels (Homo sapiens); construct: expressed in transfected cells; host or cells: CHO; test: FRET assay, CHO cells expressing human NaV1.7 channels; type: cell-based; details: read-out: activities against Nav1.7
pIC50: −log10 of the molar value.
Readout label: pIC50

INSERT INTO results (molecule, readout_label, reported_measurement) VALUES
  ('CC(=O)Nc1nccc2c1CN(C(C)c1cnc(OCC(F)(F)F)c(C)c1)C2=O (single isomer, unassigned)', 'pIC50', 5.96);

----------
molecular target: human Nav1.3 (hSCN3A) (Homo sapiens, UniProt Q9NY46); test: Electrophysiology assay (whole cell patch clamp), human Nav1.3 (hSCN3A) expressing HEK293 cells; settings: dissociation constant for the inactivated state (Kinact); read-out: activities (Ki) against NaV1.3
pKi: −log10 of the molar value.
Readout label: pKi

INSERT INTO results (molecule, reported_measurement) VALUES
  ('Cc1cc(C(C)N2Cc3c(ccnc3NC(=O)C(C)C)C2=O)cnc1OCC(F)(F)F (single isomer, unassigned)', 6.85);
